test: optical density change of DRC41 E. coli – strain DRC41, OD650, 24 h, E. coli filamentation project, primary screen (AID 1093);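 note: MC1000 strain lacking acrAB efflux and sulA so SOS filamentation is blocked; test concentration not given here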; conditions: E. coli DRC41 growth, higher = more signal, called active from +8 up or from −8 down
Property Label: z-score
Answers are plain numbers.

Please review the following examples before continuing.
Using known records, supply z-score for CO[C@H]1O[C@H](CO)[C@@H](OC(=O)Nc2ccccc2)[C@H](OC(=O)c2cc3ccccc3[nH]2)[C@H]1OC(=O)c1cc2ccccc2[nH]1
0.0433

Using known records, supply z-score for COCCOC(=O)N1C(=O)[C@@]2(c3cc(C#CC4(O)CCCCCC4)ccc31)[C@H](c1ccc(O)cc1)N1[C@H](c3ccccc3)[C@H](c3ccccc3)OC(=O)[C@H]1[C@@H]2C(=O)N1CCN(c2ncccn2)CC1
-0.321

Using known records, supply z-score for COc1ccc(CCNC(=O)[C@@]2(Sc3ccc(C)cc3)CC(=O)N(Cc3ccccc3C(F)(F)F)[C@@H]2c2ccc(CO)cc2I)cc1
0.404

Using known records, supply z-score for [N-]=[N+]=Nc1ccccc1[C@@H]1OC(c2ccc(OCCCO)cc2)=N[C@]1(Cc1ccccc1)C(=O)O
0.779

Using known records, supply z-score for C=C(C(=O)CC[C@H](OC(=O)c1ccccc1-c1ccccc1C(=O)O)c1cccc(OCCO)c1)C(C)C
-0.164

// input: 5 compounds below; output: z-score for each
1. C=C(/C(=C/C[C@H](OC(=O)c1ccncc1)c1ccc(CO)o1)c1cnc2ccccc2c1)C(C)C
2. COc1cc2c(cc1O)C(C1CC1)N(C)CC2 (stereo not given)
3. CCCCCCCCCCC(O)C1C=CC2C(=O)N(c3ccccc3)C(=O)C2N1Nc1ccc(C#N)cc1 (stereo not given)
4. NC(=O)NCC#Cc1ccc2c(c1)[C@]1(C(=O)N2)[C@H](C(=O)N2CCN(c3ncccn3)CC2)[C@H]2C(=O)O[C@H](c3ccccc3)[C@H](c3ccccc3)N2[C@@H]1c1ccc(O)cc1
5. COCC(=C=CC[C@H](O)c1ccc(OCCO)cc1)CCO

1. -0.358
2. -0.965
3. -0.983
4. -0.653
5. 0.399
